- PROTOCOL NOTES: qHTS for Inhibitors of human tyrosyl-DNA phosphodiesterase 1 (TDP1): qHTS in cells in absence of CPT; note: nearly all actives have a fitted effect of over 55% in size
- PARTICULARS: DT40 Tdp1-/- hTDP1 cells, no CPT, ATP luminescence, 48 h
About 64,000 (15%) of roughly 420,000 compounds were called active. Inconclusive results (about 27%) are left out. Calls come from the whole dose curve; as a rule, active = well fitted inhibition curve with a large enough effect; inconclusive = small, poorly fitted or top-dose-only effect; inactive = flat fitted curve, though single readings scatter. Only a sample is shown.
Pick one: 1 (active), 0 (inactive)

Exam item: Test call, this compound: CCCc1ccc(OCc2ccc(C(=O)N/N=C/c3cccc([N+](=O)[O-])c3)o2)c(OC)c1
Marked response: 1

Exam item: Test call, this compound: O=C1CSC(=S)N1c1ccc(Cl)c(Cl)c1
Marked response: 0

Exam item: Test call, this compound: O=C(COC(=O)c1cccnc1Cl)Nc1ccc(S(=O)(=O)N2CCOCC2)cc1
Marked response: 0

Exam item: Test call, this compound: CSc1nc(O)c(Cc2ccccc2)c(=O)[nH]1
Marked response: 0
